biological target: Aldo-keto reductase family 1 member C2 (Homo sapiens, UniProt P52895); experiment: Inhibition of recombinant AKR1C2 (unknown origin) using S-tetralol as substrate
Sequence (P52895 whole entry): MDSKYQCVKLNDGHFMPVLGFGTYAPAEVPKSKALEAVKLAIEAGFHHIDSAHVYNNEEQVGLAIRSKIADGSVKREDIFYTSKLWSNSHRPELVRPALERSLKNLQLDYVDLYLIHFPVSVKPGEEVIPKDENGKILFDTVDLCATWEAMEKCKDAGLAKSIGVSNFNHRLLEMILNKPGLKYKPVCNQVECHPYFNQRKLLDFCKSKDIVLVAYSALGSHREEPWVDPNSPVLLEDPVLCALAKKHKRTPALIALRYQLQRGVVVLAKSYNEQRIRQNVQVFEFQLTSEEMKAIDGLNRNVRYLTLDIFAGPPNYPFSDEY
Measure: IC50 (µM)
Only the number, expressed in µM, is required.

[[record]]
entry_smiles = "O=C(O)c1cccc(Nc2ccc(S(F)(F)(F)(F)F)cc2)c1"
observed = 20


QUERY: Need IC50, item O=C(O)c1ccccc1Nc1ccc(S(F)(F)(F)(F)F)cc1
RESULT: 0.15

QUERY: Entry O=C(O)c1ccccc1Nc1cccc(S(F)(F)(F)(F)F)c1 : reported IC50 = ?
RESULT: 0.27

QUERY: Param item = O=C(O)c1cccc(Nc2cccc(S(F)(F)(F)(F)F)c2)c1 ; retrieve measured IC50.
RESULT: 14

* * *

molecular target: UniProt Q9R0W5; assay: Binding affinity to rat bile acid-sensitive ion channel expressed in xenopus oocytes
Sequence (Q9R0W5 whole entry): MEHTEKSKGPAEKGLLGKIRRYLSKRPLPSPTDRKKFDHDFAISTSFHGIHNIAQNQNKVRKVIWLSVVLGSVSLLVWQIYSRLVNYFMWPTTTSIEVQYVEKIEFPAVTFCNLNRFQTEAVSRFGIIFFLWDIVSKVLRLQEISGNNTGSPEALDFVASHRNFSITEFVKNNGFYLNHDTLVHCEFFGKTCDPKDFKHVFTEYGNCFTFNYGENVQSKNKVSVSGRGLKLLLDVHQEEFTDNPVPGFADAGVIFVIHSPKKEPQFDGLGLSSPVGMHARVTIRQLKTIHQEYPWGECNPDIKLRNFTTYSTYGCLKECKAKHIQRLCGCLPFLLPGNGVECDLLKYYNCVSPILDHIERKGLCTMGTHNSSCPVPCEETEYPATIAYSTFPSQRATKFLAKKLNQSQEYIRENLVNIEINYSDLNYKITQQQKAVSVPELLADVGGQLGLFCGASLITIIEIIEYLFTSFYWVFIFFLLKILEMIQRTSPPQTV
Measure: EC50 (µM)
Field format: number, assumed µM, no unit text.

// below: answered compounds
[[record]]
entry_smiles = "O=C(O)c1ccccc1Nc1cccc(S(F)(F)(F)(F)F)c1"
measure = "EC50"
observed = 1400

[[record]]
entry_smiles = "O=C(O)c1ccccc1Nc1ccc(S(F)(F)(F)(F)F)cc1"
measure = "EC50"
observed = 2600

[[record]]
entry_smiles = "O=C(O)c1ccccc1Nc1cccc(C(F)(F)F)c1"
measure = "EC50"
observed = 2600


QUERY: Field request: EC50 | item: O=C(O)c1cccc(Nc2cccc(S(F)(F)(F)(F)F)c2)c1
RESULT: 2900

QUERY: Reported EC50 for O=C(O)c1cccc(Nc2ccc(S(F)(F)(F)(F)F)cc2)c1 : what is it?
RESULT: 2800

* * *

IC50 values recorded for Prostaglandin G/H synthase 2 (Homo sapiens)

[[record]]
entry_smiles = "O=C(O)c1cccc(Nc2cccc(S(F)(F)(F)(F)F)c2)c1"
measure = "IC50"
observed = "> 100 µM"


Now turn to the next compound.
QUERY: What reported IC50 corresponds to O=C(O)c1ccccc1Nc1ccc(S(F)(F)(F)(F)F)cc1 on Prostaglandin G/H synthase 2 (Homo sapiens)?
RESULT: > 100 µM
